- Read-out: Interleukin 17A (IL17A), IL17A (gene 3605)
- METHOD_NOTES: BSK_BT_xIL17A: BioMAP Diversity Plus: BT Assay for Interleukin 17A (IL17A) Biomarker Activity (AID 2284229)
- CONDITION_DESCRIPTION: primary human B cells with PBMC
Active and inactive are the calls of the source. Rule for the calls: active = hit-call score of the fitted dose curve at least 0.9, where 1 is the maximum; inactive = score below 0.9.
Labels: y for active, n for inactive

MOLECULE	CATEGORY_LABEL
CC=C(C)C(C)=O	n
O=C(Cl)c1c(Cl)c(Cl)c(C(=O)Cl)c(Cl)c1Cl	n
CCCCCCCCCCCC(C)=O	n
Cc1c(O)cccc1O	n
CCNc1nc(NC(C)(C)C)nc(OC)n1	n
CCCCCCCCC(CO)CCCCCC (centres undefined)	n
CCCCCCC=O	n
CCOC(=O)C1=NOC(c2ccccc2)(c2ccccc2)C1	n
C=CC(=O)NCOCCCC	n
CC/C=C\C/C=C\C/C=C\CCCCCCCC(=O)OC	y
Oc1c(Cl)cc(Cl)c(Cl)c1Cl	n
C[N+](C)(C)CCCNS(=O)(=O)C(F)(F)C(F)(F)C(F)(F)C(F)(F)C(F)(F)C(F)(F)C(F)(F)C(F)(F)F	y
CC1(C)CC(O)CC(C)(C)N1[O]	n
c1ccc2sc(SSN3CCOCC3)nc2c1	y

###

- METHOD_NOTES: ATG_Ets_CIS: Attagene CIS-FACTORIAL HepG2 Assay for human Erythroblast Transformation Specific (ETS) (AID 2282941)
- CONDITION_DESCRIPTION: HepG2 ETS cis-reporter transcription, actives raise or lower the signal
Active and inactive are the calls of the source. The calls were made as follows: active = hit-call score of the fitted dose curve at least 0.9, where 1 is the maximum; inactive = score below 0.9. Peptide text beside a SMILES is read from it.
Possible outcomes: active, inactive

COMPOUND	CATEGORY_LABEL
CCCCCCOc1ccc(N)cc1	inactive
CCCCC1CCC(=O)O1 (configuration not stated)	inactive
CCCC=C(C=O)CC	inactive
Cc1noc(NS(=O)(=O)c2ccc(N)cc2)c1C	inactive
C[Si]1(C)O[Si](C)(C)O[Si](C)(C)O[Si](C)(C)O[Si](C)(C)O1	inactive
CC1=NN(c2ccc(S(=O)(=O)O)cc2)C(=O)C1N=Nc1ccccc1 (configuration not stated)	inactive
CCCCc1ccc(Cl)cc1	inactive
N#Cc1ccc(C2CCCc3cncn32)cc1 (configuration not stated)	inactive
CC(=O)OC/C=C(/C)CCC=C(C)C	inactive
COc1ccc(-c2coc3cc(O)cc(O)c3c2=O)cc1	inactive
Oc1ccccc1Cc1ccccc1O	inactive
Nc1ncnc2nc[nH]c12	inactive
CCOC(=O)/C=C\C(=O)OCC	inactive
CC1=CC(C)C(C=O)CC1 (configuration not stated)	inactive
C=CCCCCCCCCC=O	inactive
CCCCC/C=C\C/C=C\CCCCCCCC(=O)O	inactive
O=C(O)CCC(=O)O	inactive
C=CC(=O)OCCCCCCCCCC	inactive
CCOB(OCC)OCC	inactive
COC(=O)[C@H](Cc1ccccc1)NC(=O)[C@@H](N)CC(=O)O (H-Asp-Phe-OMe)	inactive
Nc1ccc(Cl)c(N)c1	inactive
Cn1cccc1	inactive
CC1=CCC(C(C)C)C=C1 (configuration not stated)	inactive
CC1CCC(=O)C1=O (configuration not stated)	inactive
CCC1COC(=O)O1 (configuration not stated)	inactive
C=C1C[C@H]2[C@@H]3C=C(C)C4=CC(=O)CC[C@]4(C)[C@H]3CC[C@]2(C)[C@@]1(OC(C)=O)C(C)=O	inactive
Cc1cccc(C(C)(C)C)c1O	inactive
CC(C)c1ccc(O)c(C(C)C)c1	inactive
CN1CCN(C)CC1	inactive
O=C1CCCCCCCCCCCN1	inactive
CCCCCCCOC(=O)c1ccc(O)cc1	inactive
C=CC(=O)OCCCCCCOC(=O)C=C	inactive
Nc1ccc(O)c([N+](=O)[O-])c1	inactive
CCCCCCCO	inactive
CCCCCCCCCCCCC	inactive
CC(c1cc(C(C)(C)C)cc(C(C)(C)C)c1O)c1cc(C(C)(C)C)cc(C(C)(C)C)c1O	inactive
CCc1occc(=O)c1O	inactive
CCCC(CC)c1ccccc1 (configuration not stated)	inactive
CCCCNC(=S)NCCCC	inactive
C1CNCCN1	inactive
CC(C)CC(=O)OCc1ccccc1	inactive
CC(C)=NNC(N)=S	inactive
C=CCOC(=O)c1ccc(C(=O)OCC=C)c(C(=O)OCC=C)c1	inactive
CCCSSCCC	inactive
C=CC(=O)OCC(C)OCC(C)OCC(C)OC(=O)C=C (configuration not stated)	active
O=C(O)CC(C(=O)O)S(=O)(=O)O (configuration not stated)	inactive
CCOC(=O)CC(=O)c1ccccc1	inactive
CCC(C)c1ccccc1 (configuration not stated)	inactive
CC(CC(C)C)=NO	inactive
Nc1cccc(N)n1	inactive
CCCCCCCCCCCC(=O)OCC	inactive
CCOC(=O)OC(=O)OCC	inactive
O=C(Nc1ccccc1)c1cc(Cl)ccc1O	active
CCOC(=O)c1ccc(C)cc1	inactive
COc1ccc(C(=O)c2ccccc2)c(O)c1	inactive
O=C(O[C@@H]1Cc2c(O)cc(O)cc2O[C@@H]1c1cc(O)c(O)c(O)c1)c1cc(O)c(O)c(O)c1	inactive
CC1(C)C(=O)N(CO)C(=O)N1CO	inactive
NC(=O)Nc1ccccc1	inactive
CC/C=C\C/C=C\C/C=C\CCCCCCCC(=O)OC	inactive
CC1=CCC2CC1C2(C)C (configuration not stated)	inactive
CC(=O)C(C)C	inactive
CCCCC1C(=O)N(c2ccccc2)N(c2ccccc2)C1=O	inactive
